- Assay Setup: funnel method, arctg (H/r)
This section presents molecules with their documented Angle of repose values.
Dear colleague, please return just the value in °, with no unit written.

COc1cc2c(cc1OC)C(=O)C(CC1CCN(Cc3ccccc3)CC1)C2.COc1cc2c(cc1OC)C(=O)C(CC1CCN(Cc3ccccc3)CC1)C2.O=C(O)c1cc2ccccc2c(Cc2c(O)c(C(=O)O)cc3ccccc23)c1O [Powder 2#, donepezil semi pamoate]: 35

Alright, here's another molecule for you.
Sample COc1cc2c(cc1OC)C(=O)C(CC1CCN(Cc3ccccc3)CC1)C2.COc1cc2c(cc1OC)C(=O)C(CC1CCN(Cc3ccccc3)CC1)C2.O=C(O)c1cc2ccccc2c(Cc2c(O)c(C(=O)O)cc3ccccc23)c1O [Powder 4#, donepezil semi pamoate] ; Angle of repose observed: 38

----------
- Assay Setup: measured by a laser granulometer
Reported log10 average particle size D50 values for the following compounds.
Scale: log10; quantity: average particle size D50; unit before log: µm

Sample records with log10 average particle size D50:
COc1cc2c(cc1OC)C(=O)C(CC1CCN(Cc3ccccc3)CC1)C2.COc1cc2c(cc1OC)C(=O)C(CC1CCN(Cc3ccccc3)CC1)C2.O=C(O)c1cc2ccccc2c(Cc2c(O)c(C(=O)O)cc3ccccc23)c1O [Powder 1#, donepezil semi pamoate]: 1.95
COc1cc2c(cc1OC)C(=O)C(CC1CCN(Cc3ccccc3)CC1)C2.COc1cc2c(cc1OC)C(=O)C(CC1CCN(Cc3ccccc3)CC1)C2.O=C(O)c1cc2ccccc2c(Cc2c(O)c(C(=O)O)cc3ccccc23)c1O [Powder 4#, donepezil semi pamoate]: 0.48
COc1cc2c(cc1OC)C(=O)C(CC1CCN(Cc3ccccc3)CC1)C2.COc1cc2c(cc1OC)C(=O)C(CC1CCN(Cc3ccccc3)CC1)C2.O=C(O)c1cc2ccccc2c(Cc2c(O)c(C(=O)O)cc3ccccc23)c1O [Powder 3#, donepezil semi pamoate]: 1.11

Kindly note the recorded log10 average particle size D50 for COc1cc2c(cc1OC)C(=O)C(CC1CCN(Cc3ccccc3)CC1)C2.COc1cc2c(cc1OC)C(=O)C(CC1CCN(Cc3ccccc3)CC1)C2.O=C(O)c1cc2ccccc2c(Cc2c(O)c(C(=O)O)cc3ccccc23)c1O [Powder 2#, donepezil semi pamoate] , which is 1.62

GET /value?item= COc1cc2c(cc1OC)C(=O)C(CC1CCN(Cc3ccccc3)CC1)C2.COc1cc2c(cc1OC)C(=O)C(CC1CCN(Cc3ccccc3)CC1)C2.O=C(O)c1cc2ccccc2c(Cc2c(O)c(C(=O)O)cc3ccccc23)c1O [Powder 5#, donepezil semi pamoate] &field=log10 average particle size D50 returns -0.05

----------
Below, each entry is listed with its recorded Angle of repose.
- Assay Setup: funnel method, arctg (H/r)
Just the number please, in °, no unit attached.

COc1cc2c(cc1OC)C(=O)C(CC1CCN(Cc3ccccc3)CC1)C2.COc1cc2c(cc1OC)C(=O)C(CC1CCN(Cc3ccccc3)CC1)C2.O=C(O)c1cc2ccccc2c(Cc2c(O)c(C(=O)O)cc3ccccc23)c1O [Powder 1#, donepezil semi pamoate]: 28
COc1cc2c(cc1OC)C(=O)C(CC1CCN(Cc3ccccc3)CC1)C2.COc1cc2c(cc1OC)C(=O)C(CC1CCN(Cc3ccccc3)CC1)C2.O=C(O)c1cc2ccccc2c(Cc2c(O)c(C(=O)O)cc3ccccc23)c1O [Powder 5#, donepezil semi pamoate]: 50

Kindly review the next compound as well.
Data point: COc1cc2c(cc1OC)C(=O)C(CC1CCN(Cc3ccccc3)CC1)C2.COc1cc2c(cc1OC)C(=O)C(CC1CCN(Cc3ccccc3)CC1)C2.O=C(O)c1cc2ccccc2c(Cc2c(O)c(C(=O)O)cc3ccccc23)c1O [Powder 3#, donepezil semi pamoate] ; Angle of repose = 42
